target: human LPAR1 (Homo sapiens, UniProt Q92633); construct: expressed in transfected cells; test: Test Example 1: antagonism against response of LPA-induced increase in intracellular Ca2+ concentration in RH7777 cells stably expressing human LPAR1; format: cell-based; settings: RH7777 cells stably expressing human LPAR1; Fluo-4 fluorescence, FDSS6000; read-out: IC50 value (concentration producing 50% antagonism against response of LPA-induced increase in intracellular Ca2+ concentration) (converted)
Sequence (Q92633 whole entry): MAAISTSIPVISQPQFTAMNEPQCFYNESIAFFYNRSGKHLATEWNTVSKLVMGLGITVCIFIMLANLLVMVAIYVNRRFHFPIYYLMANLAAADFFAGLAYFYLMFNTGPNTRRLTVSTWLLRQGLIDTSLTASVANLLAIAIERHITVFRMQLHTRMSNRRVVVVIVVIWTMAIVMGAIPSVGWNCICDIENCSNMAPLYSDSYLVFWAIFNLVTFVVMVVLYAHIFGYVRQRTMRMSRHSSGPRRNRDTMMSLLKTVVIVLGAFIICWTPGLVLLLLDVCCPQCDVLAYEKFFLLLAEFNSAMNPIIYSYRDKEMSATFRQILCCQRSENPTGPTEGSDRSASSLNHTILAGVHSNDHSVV
Label Criterion met when IC50 is strictly below 9 nM; at or above that, label Criterion not met.

{"columns": ["compound", "classAssignment"],
 "data": [
  ["CCOc1cc([C@@H](C)N(CCCCc2ccccc2)C(=O)NC2(C(=O)O)CC(OCC)C2)cc(OCC)c1C(C)O (stereo partly drawn) [Example 1-98]", "Criterion met"],
  ["COc1cc([C@@H](C)N(CCOCc2ccccc2)C(=O)NC2(C(=O)O)CC(F)(F)C2)cc(OC)c1C", "Criterion met"],
  ["COc1cc(OC)nc(C(C)N(CCCCc2ccccc2)C(=O)NC2(C(=O)O)CC(F)(F)C2)n1 (stereo not drawn)", "Criterion not met"],
  ["CCOc1cc(C(C)N(CCOCc2ccccc2)C(=O)NC2(C(=O)O)CC(OCC)C2)c(Cl)c(OCC)c1C(C)=O (stereo not drawn) [Example 5-212]", "Criterion met"],
  ["CC(c1ccc2c(c1)OCCO2)N(CCCCc1ccccc1)C(=O)NC1(C(=O)O)CC(F)(F)C1 (stereo not drawn)", "Criterion not met"],
  ["CCOc1cc(C(C)N(CCCCc2ccccc2)C(=O)NC2(c3nn[nH]n3)CC(OC)C2)cc(OCC)c1C(C)=O (stereo not drawn)", "Criterion met"],
  ["COc1cc(C(CO)N(CCCCc2ccccc2)C(=O)NC2(C(=O)O)Cc3ccccc3C2)cc(OC)c1C (stereo not drawn)", "Criterion not met"],
  ["CCOc1cc(CN(CCCCc2ccccc2)C(=O)NC2(C(=O)O)CCCC2)cc(OCC)c1C", "Criterion not met"],
  ["CCOc1cc([C@@H](C)N(CCOCc2ccccc2)C(=O)N[C@]2(C(=O)O)C[C@H](OC)C2)c(C)c(OCC)c1C(C)=O", "Criterion met"],
  ["CCOc1cc([C@@H](C)N(CCCCc2ccccc2)C(=O)NC2(C(=O)O)CC2)cc(OCC)c1C(C)=O", "Criterion met"],
  ["CCOc1cc([C@@H](C)N(CCO[C@@H](C)c2cccc(Cl)c2)C(=O)NC2(C(=O)O)CC(F)(F)C2)c(Cl)c(OCC)c1C(C)=O", "Criterion met"],
  ["CCOc1cc([C@@H](C)N(CCO[C@@H](C)c2cccc(Cl)c2)C(=O)NC2(C(=O)O)CCC2)c(Cl)c(OCC)c1C(C)=O", "Criterion not met"],
  ["CCOc1cc([C@@H](C)N(CCCCc2ccccc2)C(=O)NC2(C(=O)O)CC(OC)C2)cc(OCC)c1C(C)=O (stereo partly drawn)", "Criterion met"],
  ["COc1cc(OC)cc(C(C)N(CCCCc2ccccc2)C(=O)NC2(C(=O)O)CC(F)(F)C2)c1 (stereo not drawn)", "Criterion met"],
  ["CCOc1c(C(C)=O)ccc([C@@H](C)N(CCCC(F)(F)c2ccccc2)C(=O)NC2(C(=O)O)CC(OCC)C2)c1C (stereo partly drawn)", "Criterion met"],
  ["CCOc1c(C(C)O)ccc([C@@H](C)N(CCCCc2ccccc2)C(=O)NC2(C(=O)O)CC(F)(F)C2)c1C (single isomer, unassigned) [Example 1-78]", "Criterion met"],
  ["CCOc1cc(C(C)N(CCO[C@@H](C)c2ccccc2)C(=O)NC2(C(=O)OC)CC(OCC)C2)cc(OCC)c1C(C)=O (stereo partly drawn)", "Criterion not met"],
  ["CCOc1cc([C@@H](C)N(CCC(F)(F)Cc2ccccc2)C(=O)NC2(C(=O)O)CCOCC2)cc(OCC)c1C(C)=O", "Criterion not met"],
  ["CCOc1cc([C@@H](C)N(CCOCc2ccccc2)C(=O)NC2(C(=O)O)CC(F)(F)C2)cc(OCC)c1C(C)O (stereo partly drawn) [Example 4-103]", "Criterion met"],
  ["COc1cc(C(C)N(CCOCc2ccccc2)C(=O)NC2(C(=O)O)CC(F)(F)C2)cc(OC)c1C1CC1 (stereo not drawn)", "Criterion met"]
]}
